# study target: UniProt:P47901
# Sequence (P47901 whole entry): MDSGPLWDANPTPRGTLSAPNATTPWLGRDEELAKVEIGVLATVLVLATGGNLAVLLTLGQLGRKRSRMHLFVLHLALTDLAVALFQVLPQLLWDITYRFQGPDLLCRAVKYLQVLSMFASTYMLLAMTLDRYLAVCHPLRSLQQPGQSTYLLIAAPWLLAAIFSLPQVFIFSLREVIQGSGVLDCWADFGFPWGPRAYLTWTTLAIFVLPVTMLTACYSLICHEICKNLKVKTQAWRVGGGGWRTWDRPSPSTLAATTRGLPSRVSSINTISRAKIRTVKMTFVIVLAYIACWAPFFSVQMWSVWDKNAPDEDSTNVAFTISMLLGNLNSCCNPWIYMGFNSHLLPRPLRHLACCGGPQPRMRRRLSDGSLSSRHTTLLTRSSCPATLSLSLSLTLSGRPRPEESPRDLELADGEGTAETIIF
# assay details: Binding Test for V1b Receptor ([3H]AVP, crude membrane preparation of 293FT cells)
# protocol conditions: inhibition of [3H]AVP binding (0.4 to 1 nmol/L), room temperature, 60 minutes
Assign IC50 to each entry below.
One number for each entry, in nM.

Please review the entries below; each comes with its answer.
What measured IC50 goes with CC(C)(C)NC(=O)Cc1nn(-c2ccc(CCN3C4CCC3COC4)cc2)c(=O)n1-c1cccc(Cl)c1 [Example D-14] ? 4.7

Which value of IC50 has been reported for CC(C)NC(=O)Cc1nn(-c2ccc(CCN3C4CCC3COC4)cc2)c(=O)n1-c1cccc(Cl)c1 [Example D-03] in the records? 14

State recorded IC50 for all listed molecules.
1. CC(C)NC(=O)Cn1cc(-c2ccc(CCN3CCOCC3)cc2F)nc1-c1cccc(Cl)c1 [Example A-43]
2. COc1cc(-c2nc(-c3ccc(CCN4C5CCC4CC(O)C5)cc3)cn2CC(=O)NC(C)C)ccc1F (stereo not shown) [Example A-15]

1. 0.49
2. 2.4

Recorded values, source patent US9522914B2.
